tested on: HCI01 (cells of a triple-negative basal-like breast cancer xenograft); test: cell viability (% of vehicle); higher = less cytotoxic; settings: 10 µM; 72 h;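 also: PDX cells carrying CMV promoter-driven luciferase, viability read as total photon flux per second by IVIS imaging following D-luciferin, vehicle control 0.1% DMSO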
In this section, each of the compounds is paired with its reported cell viability.
measured_endpoint: cell viability

> print(dat)
                                   compound  measured.endpoint  readout.value
1  N[C@@H](CCC(=O)N[C@@H](CS)C(=O)NCC(=O)O)C(=O)O     cell viability            103
2  NC1CCCCC1N.O=C([O-])C(=O)[O-].[Pt+2] (stereo not drawn)     cell viability           97.5
3  CCOc1nc2cccc(C(=O)O)c2n1Cc1ccc(-c2ccccc2-c2nn[nH]n2)cc1     cell viability             98
